Data origin: patent EP1484330B1

target: human dopamine D3 receptors (Homo sapiens, UniProt P35462); construct: expressed in transfected cells; membranes used; assay: Receptor binding study, displacement of [125I]-iodosulpride from HEK-293 cell membranes; settings: ratio Ki(D2)/Ki(D3)
Sequence (P35462 whole entry): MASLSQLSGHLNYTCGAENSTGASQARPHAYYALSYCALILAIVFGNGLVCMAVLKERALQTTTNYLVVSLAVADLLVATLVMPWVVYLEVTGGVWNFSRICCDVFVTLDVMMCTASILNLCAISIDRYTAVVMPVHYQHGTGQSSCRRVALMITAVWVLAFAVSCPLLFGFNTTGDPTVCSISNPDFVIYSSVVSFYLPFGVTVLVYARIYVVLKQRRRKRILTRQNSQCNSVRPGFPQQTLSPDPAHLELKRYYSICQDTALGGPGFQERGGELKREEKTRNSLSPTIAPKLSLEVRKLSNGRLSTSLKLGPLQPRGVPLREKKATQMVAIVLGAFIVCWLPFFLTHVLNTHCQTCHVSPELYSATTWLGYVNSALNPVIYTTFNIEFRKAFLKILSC
READOUT_TYPE: Selectivity [Ki(D2)/Ki(D3)]
// return just the number, without any unit appended

Please give measured Selectivity [Ki(D2)/Ki(D3)] of the following entry: CCCc1cc(N2CCN(CCCSc3nncn3C)CC2)nc(C(C)(C)C)n1.O=C(O)/C=C/C(=O)O 125

----------
test: Determination of the concentration of compounds in plasma and brain following oral dosing; type: in vivo, Male Sprague-Dawley rats; conditions: rats, 10 mg/kg orally by gavage; samples at 0.5, 3 and 8 hours; value Cmax
Entry flag: Met if Brain level reaches 1000 ng/g; Not met if it does not.

Cc1nnc(SCCCN2CCN(c3cc(C(F)(F)F)nc(C(C)(C)C)n3)CC2)n1C.Cl    Not met
Cl.Cn1cnnc1SCCCN1CCN(c2cc(C(C)(C)C)nc(C(C)(C)C)n2)CC1    Met
Cl.Cn1cnnc1SCCCN1CCN(c2cc(C(F)(F)F)nc(C(C)(C)C)n2)CC1    Met
CCCc1cc(N2CCN(CCCSc3nnc(C)n3C)CC2)nc(C(C)(C)C)n1.Cl    Not met
Cl.Cn1cnnc1SCCCN1CCN(c2cc(C(F)F)nc(C(C)(C)C)n2)CC1    Met

Dear colleague, could you confirm whether Cn1c(N)nnc1SCCCN1CCN(c2cc(C(C)(C)C)nc(C(C)(C)C)n2)CC1 [A*, reference compound] has Brain level at or above 1000 ng/g? Not met

Dear colleague, could you confirm whether Cn1c(N)nnc1SCCCN1CCN(c2cc(C(F)(F)F)nc(C(C)(C)C)n2)CC1 [B*, reference compound] has Brain level at or above 1000 ng/g? Not met

Dear colleague, could you confirm whether Cc1nnc(SCCCN2CCN(c3cc(C(C)(C)C)nc(C(C)(C)C)n3)CC2)n1C.Cl has Brain level at or above 1000 ng/g? Not met

----------
Reported Selectivity [Ki(D2)/Ki(D3)] by item:
biological target: human dopamine D3 receptors (Homo sapiens, UniProt P35462); construct: expressed in transfected cells; membranes used; assay: Receptor binding study, displacement of [125I]-iodosulpride from HEK-293 cell membranes; conditions: ratio Ki(D2)/Ki(D3)
// return just the number, without any unit appended

Reference set, count: 3
Cl.Cn1cnnc1SCCCN1CCN(c2cc(C(F)(F)F)nc(C(C)(C)C)n2)CC1 [Example 6]    134
Cc1nnc(SCCCN2CCN(c3cc(C(F)F)nc(C(C)(C)C)n3)CC2)n1C.Cl [Example 8]    224
Cl.Cn1cnnc1SCCCN1CCN(c2cc(C(F)F)nc(C(C)(C)C)n2)CC1 [Example 7]    146

Now let's try a different one.
Please give measured Selectivity [Ki(D2)/Ki(D3)] of the following entry: CCCc1cc(N2CCN(CCCSc3nnc(C)n3C)CC2)nc(C(C)(C)C)n1.Cl [Example 4] 83

----------
biological target: human dopamine D2L receptors (long isoform) (Homo sapiens, UniProt P14416); construct: membranes used; assay: Receptor binding study, displacement of [125I] iodospiperone from HEK-293 cell membranes; settings: 0.01 nM [125I] iodospiperone, HEK-293 membranes, 25°C, 60 minutes, read-out: Ki D2
Sequence (P14416 whole entry, canonical isoform): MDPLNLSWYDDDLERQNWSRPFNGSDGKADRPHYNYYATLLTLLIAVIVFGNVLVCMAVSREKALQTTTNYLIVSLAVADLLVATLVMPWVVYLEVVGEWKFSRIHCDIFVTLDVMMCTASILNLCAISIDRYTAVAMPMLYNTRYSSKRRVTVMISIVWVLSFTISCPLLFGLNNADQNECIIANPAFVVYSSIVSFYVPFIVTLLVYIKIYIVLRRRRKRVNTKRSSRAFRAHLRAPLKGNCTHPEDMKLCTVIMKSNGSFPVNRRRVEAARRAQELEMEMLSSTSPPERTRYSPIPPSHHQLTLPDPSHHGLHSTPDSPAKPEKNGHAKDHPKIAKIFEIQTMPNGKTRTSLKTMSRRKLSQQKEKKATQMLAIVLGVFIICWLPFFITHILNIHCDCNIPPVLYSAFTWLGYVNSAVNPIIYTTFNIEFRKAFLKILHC
READOUT_TYPE: pKi
Scale for pKi: -log10 of concentration given in mol/L; no unit attached.

CCCc1cc(N2CCN(CCCSc3nnc(C)n3C)CC2)nc(C(C)(C)C)n1.Cl [Example 4, hydrochloride]    6.67

Please give measured pKi of the following entry: Cc1nnc(SCCCN2CCN(c3cc(C(C)(C)C)nc(C(C)(C)C)n3)CC2)n1C.Cl [Example 1, hydrochloride] 6.75

Please give measured pKi of the following entry: Cc1nnc(SCCCN2CCN(c3cc(C(F)(F)F)nc(C(C)(C)C)n3)CC2)n1C.Cl [Example 5, hydrochloride] 6.51

Please give measured pKi of the following entry: CCCc1cc(N2CCN(CCCSc3nncn3C)CC2)nc(C(C)(C)C)n1.O=C(O)/C=C/C(=O)O [Example 3, fumarate] 6.39

Please give measured pKi of the following entry: Cl.Cn1cnnc1SCCCN1CCN(c2cc(C(F)(F)F)nc(C(C)(C)C)n2)CC1 [Example 6, hydrochloride] 6.33

Please give measured pKi of the following entry: Cl.Cn1cnnc1SCCCN1CCN(c2cc(C(F)F)nc(C(C)(C)C)n2)CC1 [Example 7, hydrochloride] 6.38

Please give measured pKi of the following entry: Cl.Cn1cnnc1SCCCN1CCN(c2cc(C(C)(C)C)nc(C(C)(C)C)n2)CC1 [Example 2, hydrochloride] 6.90

Please give measured pKi of the following entry: Cc1nnc(SCCCN2CCN(c3cc(C(F)F)nc(C(C)(C)C)n3)CC2)n1C.Cl [Example 8, hydrochloride] 6.40

----------
// endpoint Ki / system human dopamine D3 receptors (Homo sapiens, UniProt P35462)
Numbers only; they are read as nM.

Reference set, count: 3
Cl.Cn1cnnc1SCCCN1CCN(c2cc(C(F)F)nc(C(C)(C)C)n2)CC1 [Example 7, hydrochloride]    2.9
Cl.Cn1cnnc1SCCCN1CCN(c2cc(C(C)(C)C)nc(C(C)(C)C)n2)CC1 [Example 2, hydrochloride]    1.7
Cc1nnc(SCCCN2CCN(c3cc(C(C)(C)C)nc(C(C)(C)C)n3)CC2)n1C.Cl [Example 1, hydrochloride]    1.1

Please give measured Ki of the following entry: CCCc1cc(N2CCN(CCCSc3nnc(C)n3C)CC2)nc(C(C)(C)C)n1.Cl [Example 4, hydrochloride] 2.6

Please give measured Ki of the following entry: Cc1nnc(SCCCN2CCN(c3cc(C(F)F)nc(C(C)(C)C)n3)CC2)n1C.Cl [Example 8, hydrochloride] 1.8

Please give measured Ki of the following entry: CCCc1cc(N2CCN(CCCSc3nncn3C)CC2)nc(C(C)(C)C)n1.O=C(O)/C=C/C(=O)O [Example 3, fumarate] 3.3

Please give measured Ki of the following entry: Cc1nnc(SCCCN2CCN(c3cc(C(F)(F)F)nc(C(C)(C)C)n3)CC2)n1C.Cl [Example 5, hydrochloride] 3.7

Please give measured Ki of the following entry: Cl.Cn1cnnc1SCCCN1CCN(c2cc(C(F)(F)F)nc(C(C)(C)C)n2)CC1 [Example 6, hydrochloride] 3.5

----------
Reported Selectivity [Ki(D2)/Ki(D3)] by item:
target: human dopamine D3 receptors (Homo sapiens); construct: expressed in transfected cells; membranes used; assay: Receptor binding study, displacement of [125I]-iodosulpride from HEK-293 cell membranes; conditions: ratio Ki(D2)/Ki(D3)
// return just the number, without any unit appended

Cc1nnc(SCCCN2CCN(c3cc(C(F)(F)F)nc(C(C)(C)C)n3)CC2)n1C.Cl [Example 5]    84
Cc1nnc(SCCCN2CCN(c3cc(C(C)(C)C)nc(C(C)(C)C)n3)CC2)n1C.Cl [Example 1]    160

Now let's try a different one.
Please give measured Selectivity [Ki(D2)/Ki(D3)] of the following entry: Cl.Cn1cnnc1SCCCN1CCN(c2cc(C(C)(C)C)nc(C(C)(C)C)n2)CC1 [Example 2] 75
